test system: TK-10; assay: NCI tumour cell line growth inhibition, 48 h
Active and inactive are the calls of the source. No stated cut-off is given here; in the data, active = GI50 up to about 1.1 µM and inactive = higher.
MEASURED PARAMETER: GI50

INSERT INTO results (compound, reading) VALUES
  ('O=C1CCC2(c3ccccc3)Nc3ccncc3N12 (stereo not given)', '> 10 µM (inactive)'),
  ('Cc1cc(/C=C/c2cc[n+](C)c3ccccc23)c(O)c2ncccc12', '4.28 µM (inactive)'),
  ('C=CC(C)(O)CCC1C(=C)C(O)CC2C(C)(C)CCCC12C (stereo not given)', '20 µM (inactive)');

GET /values?item= Cc1nc2cccc([N+](=O)[O-])c2c(NCCCN(C)C)c1C &system= TK-10 returns GI50: > 40.9 µM (inactive)

Simply: CCCCCCCCCCCCCCCC(=O)ON1C(=S)NC(C)(c2ccccc2)C1=S (stereo not given) , TK-10, GI50 = > 100 µM (inactive)

Form field, GI50 with TK-10, item COc1cc(/C=N/n2c(-c3ccccc3)nn(C(C)=O)c2=O)cc(OC)c1OC : 3.85 µM (inactive)

The measured GI50 that CC[S+]([O-])c1c2cc(OC)ccc2nc2ccc(OC)cc12 (stereo not given) showed for TK-10 is 5.38 µM (inactive)

// GI50 (TK-10) for Cc1cc(Cl)cc2c1NC(=O)C2(O)CC(=O)c1ccc(F)cc1 (stereo not given) = > 100 µM (inactive)

====

Overview of reported GI50 across a group of compounds:
system: NCI-H522; assay: NCI tumour cell line growth inhibition, 48 h
Calls of active or inactive are those of the source. Cut-off read from the data, not from the text of the source: active = GI50 up to about 1.1 µM and inactive = higher.

Consider the following illustrative entries.
INSERT INTO assay_data (compound, measured_parameter, reading) VALUES
  ('N=C(N)N/N=C/c1c(-c2ccc(Cl)c(Cl)c2Cl)nc2sccn12', 'GI50', '1.23 µM (inactive)'),
  ('CNC(=S)/C(=N\Nc1[nH]cnc1C(N)=O)C(N)=S', 'GI50', '10.9 µM (inactive)'),
  ('Cc1ccc(C)c(N2C(=O)C(=O)C(c3nc4ccccc4s3)/C(=N/NC(=O)NN)C2=O)c1 (stereo not given)', 'GI50', '> 100 µM (inactive)'),
  ('O=C1CC2CCCC23CC2(CCN13)OCCO2 (stereo not given)', 'GI50', '> 100 µM (inactive)'),
  ('Cc1nc(-n2[nH]c(C)c(CCO)c2=O)[nH]c(=O)c1CCO', 'GI50', '> 100 µM (inactive)'),
  ('COc1ccc([C@H]2C=[N+]([O-])O[C@H](OC3CCCC3)[C@@H]2OC(C)=O)cc1OC', 'GI50', '5.66 µM (inactive)'),
  ('Cc1ccc(NC(c2ccccc2)P(=O)(c2ccccc2)c2ccccc2)cc1 (stereo not given)', 'GI50', '> 100 µM (inactive)'),
  ('CCCCCCCCCCCCCC(=O)OCC1OC(n2cc(F)c(=O)[nH]c2=O)C(N)C(OC(=O)CCCCCCCCCCCCC)C1O (stereo not given)', 'GI50', '> 100 µM (inactive)');

Just so you know, measured GI50 for CC(C)S(=O)(=O)ON1C(=O)c2ccc([N+](=O)[O-])cc2C1=O came out at > 100 µM (inactive)

response.value for COc1ccc(/C(C)=C2\CCCN(Cc3ccccc3)C2)cc1 (field: GI50) = 13.4 µM (inactive)
